# SYSTEM_UNDER_TEST: Mu-type opioid receptor (Homo sapiens, UniProt P35372)
# Sequence (P35372 whole entry): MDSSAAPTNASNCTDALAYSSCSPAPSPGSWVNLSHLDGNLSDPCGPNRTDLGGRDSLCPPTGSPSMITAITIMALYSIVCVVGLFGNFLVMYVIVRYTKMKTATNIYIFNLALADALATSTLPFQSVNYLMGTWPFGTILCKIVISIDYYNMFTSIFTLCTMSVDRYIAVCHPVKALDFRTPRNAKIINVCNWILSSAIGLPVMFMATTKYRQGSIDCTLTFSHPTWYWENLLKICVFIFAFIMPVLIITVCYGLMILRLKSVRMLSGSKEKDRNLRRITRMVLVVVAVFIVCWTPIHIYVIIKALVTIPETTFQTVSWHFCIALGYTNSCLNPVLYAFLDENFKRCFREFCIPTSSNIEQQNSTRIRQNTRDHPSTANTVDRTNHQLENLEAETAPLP
QUANTITY_NAME: Ki (nM)

Use the examples below as a reference point.
- ITEM_SMILES: "CCCNC(=O)c1ccc(C(=C2CC3CCC(C2)N3CCc2ccccc2)c2ccccc2)cc1"
  Ki (nM): 1.6
- ITEM_SMILES: "O=C(NC1CCCCC1)c1ccc(C(=C2CC3CCC(C2)N3CCc2ccccc2)c2ccccc2)cc1"
  Ki (nM): 717

I = CCNC(=O)c1ccc(C(=C2CC3CCC(C2)N3Cc2ccccc2Cl)c2cccc(O)c2)cc1
II = CCNC(=O)c1ccc(C(=C2CC3CCC(C2)N3CC=C(C)C)c2cccc(OC)c2)cc1
III = CCCCNC(=O)c1ccc(C(=C2CC3CCC(C2)N3CCc2ccccc2)c2ccccc2)cc1
Order the 3 compounds from highest to lowest Ki. Please list the labels in the order you were asked to rank them.
III, I, II
(III: 21.7 nM, I: 15 nM, II: 2.04 nM)
